- Tested on: back of volunteers (10 healthy adult males)
- Test: Vasoconstrictive activity: skin paleness after application of 0.1 % ointment in fin chamber
- Type: in vivo
- Study Conditions: application time 4 hr; 2 hours after removal; 0.1 % by weight, about 20 mg of sample; 10 subjects
- Method: The compounds of the present invention were tested for the vasoconstrictive activity in the following manner. Each of the compounds (1) to (10) of the present invention was mixed in a white petrolatum base (white petrolatum : liquid paraffin = 9 : 1) at a concentration of 0.1 % by weight for use as a test sample. […] To one portion of the back of volunteers (10 healthy adult males) was applied each sample. […] The result was evaluated based on the following criteria (-) Paleness was not observed. […]
Overview of recorded % of the number of subject which showed (±) Paleness was slightly obseved for various molecules
State the answer as a number, implicitly in %.

Input line: What % of the number of subject which showed (±) Paleness was slightly obseved appears in the records for this molecule with back of volunteers (10 healthy adult males)? "COC(=O)[C@H](OC(=O)C(C)(C)C)[C@@]1(O)CC[C@H]2[C@@H]3CCC4=CC(=O)C=C[C@]4(C)[C@H]3[C@@H](O)C[C@@]21C"
Output line: 70

Input line: Item C[C@]12C=CC(=O)C=C1CC[C@@H]1[C@@H]2[C@@H](O)C[C@@]2(C)[C@H]1CC[C@]2(O)C(=O)CO [Prednisolone, prednisolone, reference compound] with back of volunteers (10 healthy adult males) - % of the number of subject which showed (±) Paleness was slightly obseved?
Output line: 0

Input line: What reported % of the number of subject which showed (±) Paleness was slightly obseved corresponds to "COC(=O)[C@@H](OC(=O)C(C)(C)C)[C@@]1(O)[C@H](C)C[C@H]2[C@@H]3CCC4=CC(=O)C=C[C@]4(C)[C@@]3(F)[C@@H](O)C[C@@]21C" on back of volunteers (10 healthy adult males)?
Output line: 50

Input line: Please tell me: % of the number of subject which showed (±) Paleness was slightly obseved of "COC(=O)[C@@H](OC(C)=O)[C@@]1(O)[C@H](C)C[C@H]2[C@@H]3CCC4=CC(=O)C=C[C@]4(C)[C@@]3(F)[C@@H](O)C[C@@]21C" , system back of volunteers (10 healthy adult males)?
Output line: 70

Input line: Observed % of the number of subject which showed (±) Paleness was slightly obseved on back of volunteers (10 healthy adult males) for "COC(=O)[C@H](OC(=O)C(C)(C)C)[C@@]1(O)[C@H](C)C[C@H]2[C@@H]3CCC4=CC(=O)C=C[C@]4(C)[C@@]3(F)[C@@H](O)C[C@@]21C" , please.
Output line: 0

Input line: For back of volunteers (10 healthy adult males), provide % of the number of subject which showed (±) Paleness was slightly obseved of C[C@@H]1C[C@H]2[C@@H]3CCC4=CC(=O)C=C[C@]4(C)[C@@]3(F)[C@@H](O)C[C@]2(C)[C@@]1(O)C(=O)CO [Dexamethasone, dexamethasone, reference compound] please.
Output line: 10

Origin of the recorded values: patent EP0503388A1
